As shown below, each of these molecules has a reported IC50 value.
experimental-target: Tyrosine-protein kinase JAK1 (Homo sapiens, UniProt P23458)
Sequence (P23458 whole entry, the tested form may be a part): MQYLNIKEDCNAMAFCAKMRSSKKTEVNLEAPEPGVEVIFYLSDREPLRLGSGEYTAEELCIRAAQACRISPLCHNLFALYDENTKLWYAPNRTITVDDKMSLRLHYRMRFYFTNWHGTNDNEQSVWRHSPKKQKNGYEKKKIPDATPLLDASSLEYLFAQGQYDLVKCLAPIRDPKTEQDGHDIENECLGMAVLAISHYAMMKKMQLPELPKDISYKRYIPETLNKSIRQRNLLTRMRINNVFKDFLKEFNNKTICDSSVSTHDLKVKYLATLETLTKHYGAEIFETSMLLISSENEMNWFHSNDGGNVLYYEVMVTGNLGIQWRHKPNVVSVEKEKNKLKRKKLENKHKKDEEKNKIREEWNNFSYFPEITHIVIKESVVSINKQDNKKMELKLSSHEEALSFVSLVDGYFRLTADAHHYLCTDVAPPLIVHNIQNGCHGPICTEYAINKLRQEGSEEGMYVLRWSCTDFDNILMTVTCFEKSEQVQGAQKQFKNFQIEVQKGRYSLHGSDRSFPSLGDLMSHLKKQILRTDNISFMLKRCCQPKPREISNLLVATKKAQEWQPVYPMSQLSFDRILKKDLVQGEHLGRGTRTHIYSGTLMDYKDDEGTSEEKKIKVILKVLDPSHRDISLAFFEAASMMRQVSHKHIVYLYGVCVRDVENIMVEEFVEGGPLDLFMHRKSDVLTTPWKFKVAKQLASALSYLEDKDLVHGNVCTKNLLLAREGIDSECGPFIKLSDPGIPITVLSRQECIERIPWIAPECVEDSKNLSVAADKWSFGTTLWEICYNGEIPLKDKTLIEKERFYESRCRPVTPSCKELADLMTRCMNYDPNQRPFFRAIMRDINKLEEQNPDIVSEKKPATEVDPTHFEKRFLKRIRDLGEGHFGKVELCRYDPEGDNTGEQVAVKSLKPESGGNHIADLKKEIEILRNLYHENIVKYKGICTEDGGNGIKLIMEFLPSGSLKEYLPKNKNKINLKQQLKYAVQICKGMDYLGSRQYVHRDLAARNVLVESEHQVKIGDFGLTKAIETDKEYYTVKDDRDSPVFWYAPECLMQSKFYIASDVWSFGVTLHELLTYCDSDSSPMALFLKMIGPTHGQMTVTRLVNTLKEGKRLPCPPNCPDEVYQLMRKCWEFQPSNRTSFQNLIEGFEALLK
assay-overview: Inhibition of N-terminal GST-tagged human recombinant JAK1 (866 to 1154 residues) expressed in insect cells using FITC-C6-KKHTDDGYMPMSPGVA-NH peptide as substrate incubated for 10 mins measured after 90 mins in presence of ATP by caliper mobility shift assay

Here is how some molecules turned out for IC50.
input_smiles=CC[C@H](C(=O)Nc1cccc2c(-c3nc(Nc4cccc(S(C)(=O)=O)c4F)ncc3C)c[nH]c12)N1CCN(C)CC1 metric_name=IC50 result="< 3 nM"
input_smiles=COC[C@H](C(=O)Nc1cccc2c(-c3nc(Nc4cccc(S(C)(=O)=O)c4F)ncc3C)c[nH]c12)N1CCN(C)CC1 metric_name=IC50 result="< 3 nM"

## Task I am curious: what IC50 value has been reported for `COC[C@H](C(=O)Nc1cccc2c(-c3nc(Nc4cccc(S(C)(=O)=O)c4F)ncc3F)c[nH]c12)N1CCN(C)CC1` ?
## Result < 3 nM
